Data credit: patent US20240252641A1

Target: T1, CD70 on cells (CHO-CD70, JVM-3, U266, Raji, THP-1, T cells) (human, UniProt P32970 1-193)
T1 construct: whole, on cells; also called cell-surface CD70
T1 sequence (looked up): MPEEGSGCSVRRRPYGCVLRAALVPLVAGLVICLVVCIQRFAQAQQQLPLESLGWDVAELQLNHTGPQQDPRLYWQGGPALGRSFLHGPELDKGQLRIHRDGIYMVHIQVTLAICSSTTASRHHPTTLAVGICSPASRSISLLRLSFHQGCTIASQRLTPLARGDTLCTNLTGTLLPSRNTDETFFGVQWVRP
Experiment: 1.25 µg/mL scFv on U266 cells
Measurement Type: cell binding

| Binder | Measured Value |
| --- | --- |
| 59-TC4-VII-F02 (scFv, His-tagged) scFv: QLQLQESGPGLVKPSGTLSLTCAVSGGSISSSNWWSWVRQPPGKGLEWIGEIYHSGSTNYNPSLKSRVTISVDKSKNQFSLKLSSVTAADTAVYYCAGPGPDPNDAFDIWGQGTMVTVSSGGSGGSGGSGGSSSELTQDPAVSVALGQTVRITCQGDSLRSYYASWYQQLPGTAPKLLIYQDSKRPSGIPERFSGSNSGNTATLTISGTQAMDEADYYCQAWDSSTAVFGGGTKLTVL | 18500 |
| 53-TC7-VI-B06 (scFv, His-tagged) scFv: EVQLLESGGGVVQPGRSLRLSCAASGFTFSSYGMHWVRQAPGKGLEWVAVISYDGSNKYYADSVKGRFTISRDNSKNTLYLQMNSLRAEDTAVYYCAKGELELTNWGQGTLVTVSSGGSGGSGGSGGSSYELTQPPSVSVAPGQTARITCGGNNIGSKSVHWYQQKSGQAPVLVVYDDTDRPSGTPERFSGSNSGNTATLTISGTQAMDEADYYCQAWDSSTAVFGTGTKVTVL | 1170 |
| 30-TC1.2-I-C08-1 (scFv, His-tagged) scFv: QMQLVQSGAEVKKPGASVKVSCKASGYTFTSYGISWVRQAPGQGLEWMGWINPNTGGTDYAQKFQGRVTITRDTSITTGYMELSRLRSDDTAVYYCARHYYYGMDVWGQGTTVTVSSGGSGGSGGSGGSDIQLTQSPSSLSASVGDRVTITCQASQDISNYLNWYQQKPGKAPKLLIYDASNLETGVPSRFSGSGSGTDFTFTISSLQPEDIATYYCQQYDNLPLTFGGGTKVEIK | 17400 |
